PROTOCOL_DESCRIPTION: Saturation solubility of rutin by shake flask method
Format: physicochemical
ASSAY_SETUP: self-emulsifying formulation F7, 37 °C, thermodynamic from solid; in formulation F7
PROPERTY_NAME: solubility at 72 h (mg/mL)

* C[C@@H]1O[C@@H](OC[C@H]2O[C@@H](Oc3c(-c4ccc(O)c(O)c4)oc4cc(O)cc(O)c4c3=O)[C@H](O)[C@@H](O)[C@@H]2O)[C@H](O)[C@H](O)[C@H]1O [rutin, quercetin-3-O-rutinoside] | 16.2

---

PROTOCOL_DESCRIPTION: Saturation solubility of rutin by shake flask method
Assay type: physicochemical
ASSAY_SETUP: self-emulsifying formulation F2, 37 °C, thermodynamic from solid; in formulation F2
PROPERTY_NAME: solubility at 72 h (mg/mL)

- C[C@@H]1O[C@@H](OC[C@H]2O[C@@H](Oc3c(-c4ccc(O)c(O)c4)oc4cc(O)cc(O)c4c3=O)[C@H](O)[C@@H](O)[C@@H]2O)[C@H](O)[C@H](O)[C@H]1O [rutin, quercetin-3-O-rutinoside]: 24.3

Every entry's value here was drawn from paper PMC9186361.
